# procedure.summary: chemical genetic growth profiling, strain panel (AID 1159580);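 also: tested at 20 µM; growth read once vehicle control cultures reached saturation at 30 °C; 1 = growth at the plate median or of vehicle wells; lower values mean less growth of the strain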
# applied.conditions: S. cerevisiae deletion strains, growth OD, locus YFL009W, strain cdc4, active compounds read low
The whole screen tested about 5,500 compounds, of which about 2,000 (36%) were called active. Not shown: some 18% with an inconclusive outcome. The list shows a part of the results.
measured.property: normalized growth
Answer field: number only, no words.

Solved cases below.
{"columns": ["smiles.code", "normalized growth"],
 "data": [
  ["FC(F)(F)Oc1ccc(OCc2n[nH]c(=S)n2-c2ccc(Cl)cc2)cc1", 0.988],
  ["FC(F)(F)Sc1ccc(OCc2n[nH]c(=S)n2-c2ccccc2)cc1", 0.983],
  ["O=S(=O)(Nc1ccccc1Sc1c(Cl)cncc1Cl)c1ccc(Cl)cc1", 0.98]
]}

Please look at the following compound next.
Q. Item under review: O=C(Nc1ccc(SC(F)(F)F)cc1)Nc1ccc(Oc2cccc(C(F)(F)F)c2)nc1 . Reported normalized growth?
A. 0.988
